Sourced from PubChem BioAssay AID1963845

Tested on: 429239-143-T-J1-PDC complex spheroid viability
experiment_notes: Anticancer human tumor 429239-143-T-J1-PDC patient-derived small cell lung carcinoma cell line growth inhibition [POLQ]; active means viability on the fitted dose curve at most 10% of control; inactive means the rest
protocol_conditions: second compound 3.16 µM; first compound 10 µM
A correct response names exactly one class from active, inactive

CCc1cc2c(N3CCc4c(cc(Cn5ccnc5)cc4-c4cn(C)nc4C(F)(F)F)C3=O)cc(C)nc2c(OC)n1 + COC1C(OC(N)=O)C(O)C(Oc2ccc3c(O)c(NC(=O)c4ccc(O)c(CC=C(C)C)c4)c(=O)oc3c2C)OC1(C)C; inactive

query: GET /call?item= CC1COCCN1c1cc(C2(O)CC3CCC(C2)O3)c2cnn(-c3ccn[nH]3)c2n1 (stereo not drawn) + Cc1cccc(N(C)C(=O)C2C(O)CCN2c2nc(C)cc(C(F)(F)F)c2C#N)c1 returns the recorded outcome of this test.
result: active

query: Try the molecule CCc1cc2c(N3CCc4c(cc(Cn5ccnc5)cc4-c4cn(C)nc4C(F)(F)F)C3=O)cc(C)nc2c(OC)n1 + Nc1ccc(C#CCN(C(=O)Cc2ncc(C(F)(F)F)cc2C(F)(F)F)c2ccc(F)cc2)nn1
result: inactive

* * *

Test system: 429239-143-T-J1-PDC complex spheroid viability
experiment_notes: Anticancer human tumor 429239-143-T-J1-PDC cell line growth inhibition [POLQ]
protocol_conditions: second compound 3.16 µM; first compound 0.000316 µM; hits give low values
reported_endpoint: viability, T/C

Use these answered entries as a reference point.
Cn1ncnc1[C@H]1c2n[nH]c(=O)c3cc(F)cc(c23)N[C@@H]1c1ccc(F)cc1 + Nc1ccc(C#CCN(C(=O)Cc2ncc(C(F)(F)F)cc2C(F)(F)F)c2ccc(F)cc2)nn1; 106%
CC[C@@]1(O)C(=O)OCc2c1cc1n(c2=O)Cc2cc3c(CN(C)C)c(O)ccc3nc2-1 + Cc1cccc(N(C)C(=O)C2C(O)CCN2c2nc(C)cc(C(F)(F)F)c2C#N)c1; 106%

query: Any idea what its viability, T/C is? The molecule is Cn1ncnc1[C@H]1c2n[nH]c(=O)c3cc(F)cc(c23)N[C@@H]1c1ccc(F)cc1 + COC1C(OC(N)=O)C(O)C(Oc2ccc3c(O)c(NC(=O)c4ccc(O)c(CC=C(C)C)c4)c(=O)oc3c2C)OC1(C)C
result: 92.1%

* * *

Tested on: 429239-143-T-J1-PDC complex spheroid viability
experiment_notes: Anticancer human tumor 429239-143-T-J1-PDC cell line growth inhibition [POLQ];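 further: luminescence signal used as surrogate measure of viable cells; spheroids exposed to compounds for seven days before readout; 100% = DMSO vehicle control viability as luminescence relative to vehicle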
protocol_conditions: second compound 3.16 µM; first compound 0.1 µM; hits give low values
reported_endpoint: viability, T/C (%)
Express the result in % but write the number alone.

The following compounds have reported results that may help.
C=CC(=O)N1CCN(c2nc(=O)n(-c3c(C)ccnc3C(C)C)c3nc(-c4c(O)cccc4F)c(F)cc23)C(C)C1 (stereo not drawn) + Nc1ccc(C#CCN(C(=O)Cc2ncc(C(F)(F)F)cc2C(F)(F)F)c2ccc(F)cc2)nn1; 105
COc1cc2cc(C(=O)CCC(=O)O)sc2cc1OC + Cc1cccc(N(C)C(=O)C2C(O)CCN2c2nc(C)cc(C(F)(F)F)c2C#N)c1; 96.3

query: Which viability, T/C reading was recorded for the compound COc1cc2cc(C(=O)CCC(=O)O)sc2cc1OC + COC1C(OC(N)=O)C(O)C(Oc2ccc3c(O)c(NC(=O)c4ccc(O)c(CC=C(C)C)c4)c(=O)oc3c2C)OC1(C)C ?
result: 112

* * *

Test system: 429239-143-T-J1-PDC complex spheroid viability
experiment_notes: Anticancer human tumor 429239-143-T-J1-PDC cell line growth inhibition [POLQ];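 further: luminescence signal used as surrogate measure of viable cells; spheroids exposed to compounds for seven days before readout; 100% = DMSO vehicle control viability as luminescence relative to vehicle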
protocol_conditions: second compound 0.316 µM; first compound 0.1 µM; hits give low values
reported_endpoint: viability, T/C (%)
Answer format: numeric, % implied, no suffix.

Check out these entries, answers already filled in.
Cn1ncnc1[C@H]1c2n[nH]c(=O)c3cc(F)cc(c23)N[C@@H]1c1ccc(F)cc1 + Nc1ccc(C#CCN(C(=O)Cc2ncc(C(F)(F)F)cc2C(F)(F)F)c2ccc(F)cc2)nn1; 67.1
COc1ccc([C@@H](O)c2cc(-c3ncnc4cc(N5CCOCC5)ccc34)c(F)cc2Cl)nn1 + Nc1ccc(C#CCN(C(=O)Cc2ncc(C(F)(F)F)cc2C(F)(F)F)c2ccc(F)cc2)nn1; 101
CCc1cc2c(N3CCc4c(cc(Cn5ccnc5)cc4-c4cn(C)nc4C(F)(F)F)C3=O)ccnc2c(OC)n1 + Cc1cccc(N(C)C(=O)C2C(O)CCN2c2nc(C)cc(C(F)(F)F)c2C#N)c1; 97.8

query: Record lookup: for 429239-143-T-J1-PDC complex spheroid viability, what viability, T/C belongs to CC1COCCN1c1cc(C2(O)CC3CCC(C2)O3)c2cnn(-c3ccn[nH]3)c2n1 (stereo not given) + COC1C(OC(N)=O)C(O)C(Oc2ccc3c(O)c(NC(=O)c4ccc(O)c(CC=C(C)C)c4)c(=O)oc3c2C)OC1(C)C ?
result: 28.4

query: Can you check C=CC(=O)N1CCN(c2nc(=O)n(-c3c(C)ccnc3C(C)C)c3nc(-c4c(O)cccc4F)c(F)cc23)C(C)C1 (stereo not given) + COC1C(OC(N)=O)C(O)C(Oc2ccc3c(O)c(NC(=O)c4ccc(O)c(CC=C(C)C)c4)c(=O)oc3c2C)OC1(C)C next?
result: 90.8

* * *

Known viability, T/C of a selection of compounds
Test system: 429239-143-T-J1-PDC complex spheroid viability
experiment_notes: Anticancer human tumor 429239-143-T-J1-PDC cell line growth inhibition [POLQ];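 further: luminescence signal used as surrogate measure of viable cells; spheroids exposed to compounds for seven days before readout; 100% = DMSO vehicle control viability as luminescence relative to vehicle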
protocol_conditions: second compound 0.0316 µM; first compound 0.1 µM; hits give low values

COc1ccc([C@@H](O)c2cc(-c3ncnc4cc(N5CCOCC5)ccc34)c(F)cc2Cl)nn1 + Cc1cccc(N(C)C(=O)C2C(O)CCN2c2nc(C)cc(C(F)(F)F)c2C#N)c1; 95.7%
CC1COCCN1c1cc(C2(O)CC3CCC(C2)O3)c2cnn(-c3ccn[nH]3)c2n1 (stereo not drawn) + Nc1ccc(C#CCN(C(=O)Cc2ncc(C(F)(F)F)cc2C(F)(F)F)c2ccc(F)cc2)nn1; 72%

Okay, now this compound:
query: Record COc1cccc2c1C(=O)c1c(O)c3c(c(O)c1C2=O)CC(O)(C(=O)CO)CC3OC1CC(N)C(O)C(C)O1 (stereo not drawn) + COC1C(OC(N)=O)C(O)C(Oc2ccc3c(O)c(NC(=O)c4ccc(O)c(CC=C(C)C)c4)c(=O)oc3c2C)OC1(C)C : what is its viability, T/C with 429239-143-T-J1-PDC complex spheroid viability?
result: 13.3%

* * *

Test system: 429239-143-T-J1-PDC complex spheroid viability
experiment_notes: Anticancer human tumor 429239-143-T-J1-PDC cell line growth inhibition [POLQ];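 further: luminescence signal used as surrogate measure of viable cells; spheroids exposed to compounds for seven days before readout; 100% = DMSO vehicle control viability as luminescence relative to vehicle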
protocol_conditions: second compound 1 µM; first compound 1 µM; hits give low values
Procedure: Multicellular complex tumor spheroid response to Polymerase (POL) inhibitors (novobiocin, ART-558, RP6685) in combination with a variety of drugs and investigational agents in selected tumor cell lines The POL inhibitors (novobiocin, ART-558, and RP6685) were evaluated both individually and in combination with standard of care and investigational anticancer small molecules within a complex spheroid model of solid tumors. . […]
The reader will find reported viability, T/C values listed item by item below.
Please reply with the bare figure in % and do not write the unit itself.

CNCc1ccc(-c2[nH]c3cc(F)cc4c3c2CCNC4=O)cc1 + Nc1ccc(C#CCN(C(=O)Cc2ncc(C(F)(F)F)cc2C(F)(F)F)c2ccc(F)cc2)nn1; 84.8

query: Return reported viability, T/C; argument: COc1cc2cc(C(=O)CCC(=O)O)sc2cc1OC + Nc1ccc(C#CCN(C(=O)Cc2ncc(C(F)(F)F)cc2C(F)(F)F)c2ccc(F)cc2)nn1
result: 97.9

query: Likewise for CCc1cc2c(N3CCc4c(cc(Cn5ccnc5)cc4-c4cn(C)nc4C(F)(F)F)C3=O)ccnc2c(OC)n1 + COC1C(OC(N)=O)C(O)C(Oc2ccc3c(O)c(NC(=O)c4ccc(O)c(CC=C(C)C)c4)c(=O)oc3c2C)OC1(C)C ?
result: 62

query: Quick one: CCc1cc2c(N3CCc4c(cc(Cn5ccnc5)cc4-c4cn(C)nc4C(F)(F)F)C3=O)ccnc2c(OC)n1 + Nc1ccc(C#CCN(C(=O)Cc2ncc(C(F)(F)F)cc2C(F)(F)F)c2ccc(F)cc2)nn1
result: 84.6

query: For CNCc1ccc(-c2[nH]c3cc(F)cc4c3c2CCNC4=O)cc1 + COC1C(OC(N)=O)C(O)C(Oc2ccc3c(O)c(NC(=O)c4ccc(O)c(CC=C(C)C)c4)c(=O)oc3c2C)OC1(C)C then?
result: 72.6

query: What do you have for COc1cccc(OCCCN)c1-c1cc(Nc2cnc(C#N)cn2)n[nH]1 + COC1C(OC(N)=O)C(O)C(Oc2ccc3c(O)c(NC(=O)c4ccc(O)c(CC=C(C)C)c4)c(=O)oc3c2C)OC1(C)C ?
result: 24

query: Next compound up: COc1cc(C2c3cc4c(cc3C(OC3OC5COC(C)OC5C(O)C3O)C3COC(=O)C23)OCO4)cc(OC)c1O (stereo not given) + Cc1cccc(N(C)C(=O)C2C(O)CCN2c2nc(C)cc(C(F)(F)F)c2C#N)c1
result: 17.4
